For each record, write down the corresponding IC50.
Biological target: BMX (Homo sapiens (Human))
Sequence (P51813 whole entry): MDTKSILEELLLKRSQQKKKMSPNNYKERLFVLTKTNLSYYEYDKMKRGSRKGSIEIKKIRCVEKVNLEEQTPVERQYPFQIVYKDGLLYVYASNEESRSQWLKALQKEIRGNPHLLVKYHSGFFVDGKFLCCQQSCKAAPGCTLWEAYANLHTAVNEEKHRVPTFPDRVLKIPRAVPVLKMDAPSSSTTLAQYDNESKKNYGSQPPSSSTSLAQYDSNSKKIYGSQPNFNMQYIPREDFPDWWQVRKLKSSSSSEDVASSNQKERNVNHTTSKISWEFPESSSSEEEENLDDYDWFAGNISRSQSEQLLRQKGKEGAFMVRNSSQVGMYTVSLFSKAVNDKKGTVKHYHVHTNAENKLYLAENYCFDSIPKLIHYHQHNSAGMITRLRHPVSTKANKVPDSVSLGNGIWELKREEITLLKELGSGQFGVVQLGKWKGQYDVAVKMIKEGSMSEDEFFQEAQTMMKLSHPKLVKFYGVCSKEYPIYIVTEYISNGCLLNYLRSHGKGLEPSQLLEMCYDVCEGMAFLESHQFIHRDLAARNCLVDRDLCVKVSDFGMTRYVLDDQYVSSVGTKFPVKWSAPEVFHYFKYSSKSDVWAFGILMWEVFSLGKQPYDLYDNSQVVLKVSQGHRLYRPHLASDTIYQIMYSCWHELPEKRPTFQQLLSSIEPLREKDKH
Give bare numbers, in nM.

Please review the following examples before continuing.
>>> df
                                   molecule  result
0  NC(=O)c1c(-c2ccc(Oc3ccccc3)cc2)nc2n1NCCC2C1CCN(C(=O)/C=C/C(F)(F)F)CC1 (single isomer, unassigned) [10a (peak 1)]    20.9
1  C=CC(=O)N1CCC(C2CCNn3c2nc(-c2ccc(Oc4ccccc4)cc2)c3C(N)=O)CC1 (single isomer, unassigned) [1b (peak 2)]    53.9
2  C=CC(=O)N1CCC(C2CCn3c2nc(-c2ccc(Oc4ccccc4)cc2)c3C(N)=O)CC1 (stereo not shown)    31.1

For the 4 molecules below, give their IC50 values.
1. C=CC(=O)N1CCC(C2CCn3c2nc(-c2ccc(Oc4ccccc4)c(OC)c2)c3C(N)=O)CC1 (stereo not shown)
2. NC(=O)c1c(-c2ccc(Oc3ccccc3)cc2)nc2n1NCCC2C1CCN(C(=O)/C=C/C(F)(F)F)CC1 (single isomer, unassigned) [10b (peak 2)]
3. C=CC(=O)N1CCC(C2CCNn3c2nc(-c2ccc(Oc4ccccc4)cc2)c3C(N)=O)CC1 (single isomer, unassigned) [1a (peak 1)]
4. C=CC(=O)Nc1ccccc1C1CCNn2c1nc(-c1ccc(Oc3ccccc3)cc1)c2C(N)=O (stereo not shown)

[80.3, 144, 15.3, 64.5]
